tested on: cotton; test: Phytotoxicity test for field crops (soil treatment test); format: in vivo; parameters: key: 0 (no harm); 9 (complete withered); details: 50 g ai/ha; Cotton (10 days after treatment)
READOUT LABEL: Soil treatment phytotoxicity, Cotton
Give the figure only, with no unit attached.

COMPOUND	Soil treatment phytotoxicity, Cotton
Cn1nc(COCc2nc(C(F)(F)F)ccc2C(=O)Nc2nnnn2C)nc1C#N	0
CON(Cc1nnn(C)n1)Cc1nc(C(F)(F)F)ccc1C(=O)Nc1nnnn1C	1
Cn1nnnc1COc1nc(C(F)(F)F)ccc1C(=S)Nc1nnnn1C	0
CCOC(=O)OC(C)n1nnn(C)c1=NC(=O)c1ccc(C(F)(F)F)nc1CSCc1nnn(C)n1 (stereo not shown)	0
Cn1nnc(COCc2nc(C(F)(F)F)ccc2C(=O)Nc2nnnn2C)n1	1

**Q:** Data request, read-out Soil treatment phytotoxicity, Cotton, for Cn1nnc(COCc2nc(C(F)(F)F)ccc2C(=O)N(c2nnnn2C)S(C)(=O)=O)n1
**A:** 1

**Q:** Data request, read-out Soil treatment phytotoxicity, Cotton, for Cc1nc(COCc2nc(C(F)(F)F)ccc2C(=O)Nc2nnnn2C)nn1C
**A:** 1

**Q:** Data request, read-out Soil treatment phytotoxicity, Cotton, for Cn1nnc(COCc2nc(C(F)(F)C(F)(F)F)ccc2C(=O)Nc2nnnn2C)n1
**A:** 0

**Q:** Data request, read-out Soil treatment phytotoxicity, Cotton, for CN(Cc1nnn(C)n1)c1nc(C(F)(F)F)ccc1C(=O)Nc1nnnn1C
**A:** 1

**Q:** Data request, read-out Soil treatment phytotoxicity, Cotton, for Cn1nnc(COCc2nc(C(F)(F)F)ccc2C(=O)N(C(=O)c2ccccc2)c2nnnn2C)n1
**A:** 1

**Q:** Data request, read-out Soil treatment phytotoxicity, Cotton, for Cn1nnc(COCc2nc(C(F)(F)F)ccc2C(=S)Nc2nnnn2C)n1
**A:** 4

**Q:** Data request, read-out Soil treatment phytotoxicity, Cotton, for Cn1nnnc1COc1nc(C(F)(F)F)ccc1C(=O)Nc1nnnn1C
**A:** 2

**Q:** Data request, read-out Soil treatment phytotoxicity, Cotton, for Cn1nnc(CSCc2nc(C(F)F)ccc2C(=O)Nc2nnnn2C)n1
**A:** 0

**Q:** Data request, read-out Soil treatment phytotoxicity, Cotton, for Cn1nnc(CSCc2nc(C(F)(F)F)ccc2C(=O)N(c2nnnn2C)S(C)(=O)=O)n1
**A:** 0

**Q:** Data request, read-out Soil treatment phytotoxicity, Cotton, for Cn1nnc(COCc2nc(C(F)F)ccc2C(=O)Nc2nnnn2C)n1
**A:** 0

**Q:** Data request, read-out Soil treatment phytotoxicity, Cotton, for Cc1nc(COCc2nc(C(F)(F)F)ccc2C(=S)Nc2nnnn2C)nn1C
**A:** 0

----------
system: soybean; assay: Phytotoxicity test for upland field crops (foliar treatment test); assay type: in vivo; details: 50 g ai/ha, Soybean (7 days after treatment)
Threshold rule: Foliar treatment phytotoxicity, Soybean greater than or equal to 5 is rule met; below that, rule not met.

The examples below pair each entry with its known result.
SMILES INPUT	STUDY TARGET	LABEL VALUE
Cn1nc(COCc2nc(C(F)(F)F)ccc2C(=O)Nc2nnnn2C)nc1C#N	soybean	rule not met
Cn1nnc(COCc2nc(C(F)(F)F)ccc2C(=O)N(c2nnnn2C)S(C)(=O)=O)n1	soybean	rule met
CN(Cc1nnn(C)n1)c1nc(C(F)(F)F)ccc1C(=O)Nc1nnnn1C	soybean	rule not met
Cn1nnnc1NC(=O)c1ccc(C(F)(F)F)nc1Sc1nnnn1C	soybean	rule met

Proceed to the following item.
**Q:** For this compound, is measured Foliar treatment phytotoxicity, Soybean 5 or higher? Cn1nnnc1COc1nc(C(F)(F)F)ccc1C(=O)Nc1nnnn1C
**A:** rule met

----------
system: cotton; experiment: Phytotoxicity test for upland field crops (foliar treatment test); format: in vivo; set-up: key: 0 (no harm); 9 (complete withered); conditions: 100 g ai/ha, Cotton (14 days after treatment)
READOUT LABEL: Foliar treatment phytotoxicity, Cotton
Give the figure only, with no unit attached.

MOLECULE	READING
Cn1nnc(COCc2nc(C(F)F)ccc2C(=O)Nc2nnnn2C)n1	9

**Q:** Data request, read-out Foliar treatment phytotoxicity, Cotton, for Cn1nnc(COCc2nc(C(F)(F)F)ccc2C(=O)Nc2nnnn2C)n1
**A:** 9

----------
tested on: cotton; assay: Phytotoxicity test for upland field crops (foliar treatment test); assay type: in vivo; set-up: key: 0 (no harm); 9 (complete withered); conditions: 50 g ai/ha, Cotton (14 days after treatment)
Kindly apply the following: rule met if Foliar treatment phytotoxicity, Cotton is less than 7, rule not met in every other case.

**Q:** Bench note: check whether Cn1nnc(CSCc2nc(C(F)(F)F)ccc2C(=O)Nc2nnnn2C)n1 shows Foliar treatment phytotoxicity, Cotton below 7
**A:** rule met

**Q:** Bench note: check whether Cn1ncnc1COc1nc(C(F)(F)F)ccc1C(=O)Nc1nnnn1C shows Foliar treatment phytotoxicity, Cotton below 7
**A:** rule not met

**Q:** Bench note: check whether Cn1nnnc1COCc1nc(C(F)(F)F)ccc1C(=O)Nc1nnnn1C shows Foliar treatment phytotoxicity, Cotton below 7
**A:** rule met

**Q:** Bench note: check whether CON(Cc1nnn(C)n1)Cc1nc(C(F)(F)F)ccc1C(=O)Nc1nnnn1C shows Foliar treatment phytotoxicity, Cotton below 7
**A:** rule not met

**Q:** Bench note: check whether COC(=O)OC(C)N(C(=O)c1ccc(C(F)(F)F)nc1COCc1ncn(C)n1)c1nnnn1C (centres unmarked) shows Foliar treatment phytotoxicity, Cotton below 7
**A:** rule not met

**Q:** Bench note: check whether Cn1nnnc1COc1nc(C(F)(F)F)ccc1C(=O)Nc1nnnn1C shows Foliar treatment phytotoxicity, Cotton below 7
**A:** rule met

**Q:** Bench note: check whether CON(Cc1nnn(C)n1)c1nc(C(F)(F)F)ccc1C(=O)Nc1nnnn1C shows Foliar treatment phytotoxicity, Cotton below 7
**A:** rule met

----------
Test system: soybean
Assay: Phytotoxicity test for upland field crops (foliar treatment test)
Format: in vivo
Settings: 50 g ai/ha, Soybean (7 days after treatment)
Procedure: Experimental Example 3: Phytotoxicity Test for Upland Field Crops (Foliar Treatment Test) Foliar treatment was performed for grown crops and weeds in a square plastic pot having a surface area of 50 cm^2 filled with horticultural soil. As a fertilizer per pot, 0.5 g of horticultural mixed fertilizer (N:P:K=17:21:17) was treated by mixing in the upper soil. […]
Threshold rule: Foliar treatment phytotoxicity, Soybean greater than or equal to 5 is True; below that, False.

COMPOUND	LABEL VALUE
Cn1ncnc1COc1nc(C(F)(F)F)ccc1C(=O)Nc1nnnn1C	True
COC(=O)OC(C)N(C(=O)c1ccc(C(F)(F)F)nc1COCc1nnn(C)n1)c1nnnn1C (centres unmarked)	False
Cn1nnnc1CSc1nc(C(F)(F)F)ccc1C(=S)Nc1nnnn1C	True
Cc1nc(COCc2nc(C(F)(F)F)ccc2C(=O)Nc2nnnn2C)nn1C	False

Proceed to the following item.
**Q:** For this compound, is measured Foliar treatment phytotoxicity, Soybean 5 or higher? Cn1nc(COCc2nc(C(F)(F)F)ccc2C(=O)Nc2nnnn2C)nc1Br
**A:** False

----------
System: soybean
Assay: Phytotoxicity test for upland field crops (foliar treatment test)
Type: in vivo
Design: key: 0 (no harm); 9 (complete withered)
Settings: 50 g ai/ha, Soybean (14 days after treatment)
Method: Experimental Example 3: Phytotoxicity Test for Upland Field Crops (Foliar Treatment Test) Foliar treatment was performed for grown crops and weeds in a square plastic pot having a surface area of 50 cm^2 filled with horticultural soil. As a fertilizer per pot, 0.5 g of horticultural mixed fertilizer (N:P:K=17:21:17) was treated by mixing in the upper soil. […]
Threshold rule: Foliar treatment phytotoxicity, Soybean greater than or equal to 6 is MET; below that, NOT MET.

The examples below pair each entry with its known result.
MOLECULE	STUDY TARGET	LABEL VALUE
COC(=O)OC(C)N(C(=O)c1ccc(C(F)(F)F)nc1COCc1nnn(C)n1)c1nnnn1C (centres unmarked)	soybean	NOT MET
CN(Cc1nnn(C)n1)c1nc(C(F)(F)F)ccc1C(=O)Nc1nnnn1C	soybean	MET

**Q:** For this molecule, is measured Foliar treatment phytotoxicity, Soybean 6 or higher? Cn1nnnc1CSc1nc(C(F)(F)F)ccc1C(=S)Nc1nnnn1C
**A:** MET

**Q:** For this molecule, is measured Foliar treatment phytotoxicity, Soybean 6 or higher? Cn1nnc(COCc2nc(C(F)F)ccc2C(=O)Nc2nnnn2C)n1
**A:** MET

**Q:** For this molecule, is measured Foliar treatment phytotoxicity, Soybean 6 or higher? Cc1nc(COCc2nc(C(F)(F)F)ccc2C(=O)Nc2nnnn2C)nn1C
**A:** NOT MET

**Q:** For this molecule, is measured Foliar treatment phytotoxicity, Soybean 6 or higher? Cn1nnc(COCc2nc(C(F)(F)F)ccc2C(=O)Nc2nnnn2C)n1
**A:** MET

**Q:** For this molecule, is measured Foliar treatment phytotoxicity, Soybean 6 or higher? Cn1nnnc1COCc1nc(C(F)(F)F)ccc1C(=O)Nc1nnnn1C
**A:** MET

**Q:** For this molecule, is measured Foliar treatment phytotoxicity, Soybean 6 or higher? CCOC(=O)OC(C)N(C(=O)c1ccc(C(F)(F)F)nc1COCc1nnn(C)n1)c1nnnn1C (centres unmarked)
**A:** NOT MET

**Q:** For this molecule, is measured Foliar treatment phytotoxicity, Soybean 6 or higher? Cn1nnnc1NC(=O)c1ccc(C(F)(F)F)nc1Sc1nnnn1C
**A:** NOT MET

**Q:** For this molecule, is measured Foliar treatment phytotoxicity, Soybean 6 or higher? Cn1nnc(CSCc2nc(C(F)(F)F)ccc2C(=O)Nc2nnnn2C)n1
**A:** NOT MET

**Q:** For this molecule, is measured Foliar treatment phytotoxicity, Soybean 6 or higher? Cn1nnc(COCc2nc(C(F)(F)F)ccc2C(=S)Nc2nnnn2C)n1
**A:** MET
